System: pigweed (Amaranthus retroflexus)
Test description: Test A preemergence
Type: in vivo
Test parameters: 500 g ai/ha, preemergence; 0 to 100 scale, 0 = no effect, 100 = complete control
// label = class 1 if Plant response rating, Pigweed is not less than 70, otherwise class 0

// below: answered molecules
[
  {
    "Molecule": "CC(C)Oc1cccc(C2CN(C)C(=O)C2C(=O)Nc2ccccc2F)c1 (centres unmarked)",
    "Assigned class": "class 1"
  },
  {
    "Molecule": "CN1CC(c2ccc(C(F)(F)F)cc2)C(C(=O)Nc2ccc(F)cc2F)C1=O (centres unmarked)",
    "Assigned class": "class 1"
  },
  {
    "Molecule": "Cc1ccc(C2CN(C)C(=O)C2C(=O)Nc2cccc(F)c2F)cc1 (centres unmarked)",
    "Assigned class": "class 1"
  }
]

Exercise: Check the entry Cc1ccc(C2CNC(=O)C2C(=O)Nc2ccc(F)c(F)c2F)cc1C(F)(F)F (racemic) : does Plant response rating, Pigweed equal or exceed 70?
Key: class 0

---

System: Galium (catchweed bedstraw, Galium aparine)
Test description: Test A postemergence
Format: in vivo
Test parameters: Galium, post-emergence, 240 h, Postemergence, 500 g ai/ha; visual injury, 0 to 100 scale (0 no effect, 100 complete control), approx. 10 d; read-out: Plant response rating, Galium
// label = true (1) if pest or weed control at 500 g/ha is not less than 30%, otherwise false (0)

// below: answered compounds
[
  {
    "Compound": "COc1cc([C@H]2CN(C)C(=O)[C@@H]2C(=O)Nc2ccccc2SC)ccc1F",
    "Target": "Galium (catchweed bedstraw, Galium aparine)",
    "Assigned class": "true (1)"
  },
  {
    "Compound": "CN1C[C@H](c2cccc(C(C)(F)F)c2)[C@@H](C(=O)Nc2ccccc2F)C1=O",
    "Target": "Galium (catchweed bedstraw, Galium aparine)",
    "Assigned class": "true (1)"
  },
  {
    "Compound": "Cc1ccc([C@H]2CNC(=O)[C@@H]2C(=O)Nc2c(F)cccc2F)cc1C",
    "Target": "Galium (catchweed bedstraw, Galium aparine)",
    "Assigned class": "false (0)"
  }
]

Exercise: Check the entry C=CN1C[C@H](c2ccc(C)c(F)c2)[C@@H](C(=O)Nc2cccc(F)c2F)C1=O (racemic) : does pest or weed control at 500 g/ha equal or exceed 30%?
Key: false (0)

Exercise: Check the entry CN1CC(c2cccc(OCC=C(Cl)Cl)c2)C(C(=O)Nc2cccc(F)c2F)C1=O (centres unmarked) : does pest or weed control at 500 g/ha equal or exceed 30%?
Key: false (0)

---

Test system: blackgrass (Alopecurus myosuroides)
Test description: Test A postemergence
Format: in vivo
Test parameters: Alopecurus myosuroides, post-emergence, 240 h, Postemergence, 500 g ai/ha; visual injury, 0 to 100 scale (0 no effect, 100 complete control), approx. 10 d; read-out: Plant response rating, Blackgrass
Description: […]
Below, each entry is listed with its recorded pest or weed control at 500 g/ha.
Entry rule: numbers only, all in %.

Some compounds with recorded pest or weed control at 500 g/ha:
[
  {
    "Compound": "CN1C[C@H](c2cccc(C(C)(F)F)c2)[C@@H](C(=O)Nc2ccccc2S(C)(=O)=O)C1=O",
    "Units": "%",
    "pest or weed control at 500 g/ha": 70
  },
  {
    "Compound": "CN1CC(c2cccc(OCC=C(Cl)Cl)c2)C(C(=O)Nc2cccc(F)c2F)C1=O (stereo not shown)",
    "Units": "%",
    "pest or weed control at 500 g/ha": 0
  },
  {
    "Compound": "CN1C[C@H](c2cccc(C(C)(F)F)c2)[C@@H](C(=O)Nc2ccccc2F)C1=O",
    "Units": "%",
    "pest or weed control at 500 g/ha": 80
  }
]

The measured pest or weed control at 500 g/ha associated with O=C1NC[C@H](c2cnc(C(F)(F)F)nc2)[C@H]1C(=O)Nc1cccc(F)c1F reads 0

The measured pest or weed control at 500 g/ha associated with CN1C[C@H](c2cccc(C(C)(F)F)c2)[C@@H](C(=O)Nc2cccc(F)c2F)C1=O reads 80

The measured pest or weed control at 500 g/ha associated with O=C1NC[C@H](c2nccc(C(F)(F)F)n2)[C@H]1C(=O)Nc1cccc(F)c1F reads 0

The measured pest or weed control at 500 g/ha associated with Cc1c(F)cccc1NC(=O)[C@H]1C(=O)NC[C@@H]1c1cccc2c1OC(F)(F)O2 reads 0

The measured pest or weed control at 500 g/ha associated with COc1cc(OC)cc([C@H]2CN(C)C(=O)[C@@H]2C(=O)Nc2cccc(F)c2F)c1 reads 80

The measured pest or weed control at 500 g/ha associated with Cc1cc([C@H]2CN(C)C(=O)[C@@H]2C(=O)Nc2cccc(F)c2C)ccc1F reads 60

The measured pest or weed control at 500 g/ha associated with Cc1c(F)ccc([C@H]2CNC(=O)[C@@H]2C(=O)Nc2ccc(F)cc2F)c1F reads 0
